test system: HGM cells; assay: 2D HC-CAPA (chloroalkane penetration assay), cytosolic delivery in 2D cell culture; type: cell-based; settings: HGM cells (HeLa stably expressing HaloTag-GFP-Mito), complexes 0 to max 20 μM in Leibovitz's, 4 h, 37 °C, then HRO 2 5 μM 15 min, high-content fluorescence imaging, Hill analysis of DRCs, duplicates
readout_name: CP50, half maximal cell-penetration concentration (µM)
One number for each entry, in µM.

Please review the entries below; each comes with its answer.
substance	system_tested	units_symbol	quantitative_result
KKKKKK [compound 25, streptavidin 3/peptide 14 (KKKKKK) 1 : 2 complex, isostructural CPP control]	HGM cells	µM	2.8
EUEUEU [compound 1]	HGM cells	µM	3.6
EEUUUU [compound 21, 1 : 3 streptavidin 3/peptide 11 (EEUUUU) complex]	HGM cells	µM	2.5

Next item in the queue.
Simply: EEEUUU [compound 19, 1 : 3 streptavidin 3/peptide 9 (EEEUUU) complex] , HGM cells, CP50, half maximal cell-penetration concentration = 3.8

###

test system: HGM cells; test: 2D HC-CAPA (chloroalkane penetration assay), cytosolic delivery in 2D cell culture; type: cell-based; settings: HGM cells, up to 20 μM, 4 h

substance	Uptake activity in 2D CAPA, in words
EEEEEE [compound 23, streptavidin 3/peptide 13 (EEEEEE) 1 : 2 complex]	inactive
UUUEEE [compound 20, 1 : 3 streptavidin 3/peptide 10 (UUUEEE) complex]	inactive

###

test system: HGM cells; experiment: 2D HC-CAPA (chloroalkane penetration assay), cytosolic delivery in 2D cell culture; assay type: cell-based; conditions: HGM cells (HeLa stably expressing HaloTag-GFP-Mito), complexes 0 to max 20 μM in Leibovitz's, 4 h, 37 °C, then HRO 2 5 μM 15 min, high-content fluorescence imaging, Hill analysis of DRCs, duplicates
Would you mind telling me the reported CP50, half maximal cell-penetration concentration of each entry?

The cases that follow already have their CP50, half maximal cell-penetration concentration on record.
substance	result
UUUUUU [compound 22]	>20 µM
EEEEEE [compound 23, streptavidin 3/peptide 13 (EEEEEE) 1 : 2 complex]	>20 µM

Now take the following substance into account.
Lookup result for UUUEEE [compound 20, 1 : 3 streptavidin 3/peptide 10 (UUUEEE) complex] ; measured CP50, half maximal cell-penetration concentration: > 20 µM
